- tested.system: AgFus1
- method: SPOT peptide array binding signal intensity (averaged, normalized) (arbitrary units (background-subtracted, floor 0; scale differs between SH3 domains)); higher = stronger binding of the SH3 domain to the peptide
Overview of reported SPOT peptide array binding signal intensity across a group of binders:
endpoint: SPOT peptide array binding signal intensity

| binder | endpoint.value |
| --- | --- |
| PLQSKIPMLPSRRTM | 98.5 |
| WRPRIVPILPYITRL | 90 |
| NILKRRPLKLEAPSK | 77 |
| SSAAPPPPPRRATPE | 4 |

Where these numbers come from: the supplement of paper PMC4466140
